# EXPERIMENTAL_TARGET: T1, human ERBB3 His tagged, monomeric (human, UniProt P21860 20-643, biotinylated in the Alphascreen assays (sites not given))
# T1 construct: Used unbiotinylated as Biacore analyte and biotinylated in Alphascreen; treated as one molecule; also called human ERBB3-His (Acrobiosystems); biotinylated monomeric human ERBB3
# TEST_NAME: SPR (Biacore), captured IgG, monomeric ERBB3-His analyte
# koff annotations
Record the result as a number with its unit.

Consider the reported koff for these binders:
BINDER	koff
11H02 IgG1null (antibody, V domains shown, Human IgG1null and human Ckappa) VH: QVQLVESGGGLVKPGGSLRLSCAASGFTFSDYGMSWIRQAPGKGLEWVSTISDSGSYTYYADSVKGRFTISRDNAKNSLYLQMNSLRAEDTAVYYCAREWGDYDGFDNWGQGTLVTVSS VL: DIQMTQSPSSLSASVGDRVTITCRASQIISSYLSWYQQKPGKAPKLLIYAASSLDSGVPSRFSGSGSGTDFTLTISSLQPEDFATYYCLQYYSTPLTFGGGTKVEIK	0.0081 s⁻¹
MH2 IgG1null (antibody, V domains shown, Designer (Maximally Humanized) clone; Human IgG1null and human Ckappa) VH: QVQLVESGGGLVKPGGSLRLSCAASGFTFSDYGMSWIRQAPGKGLEWVSTISDSGSYIYYADSVKGRFTISRDNAKNSLYLQMNSLRAEDTAVYYCAREWGDYDGFDFWGQGTLVTVSS VL: DIQMTQSPSSLSASVGDRVTITCRASQSISSYLSWYQQKPGKAPKLLIYAASSLQSGVPSRFSGSGSGTDFTLTISSLQPEDFATYYCLQYDSTPLTFGGGTKVEIK	0.0029 s⁻¹
h24C05 IgG1null (antibody, V domains shown, Human IgG1null (L234A, L235A, G237A) and human Ckappa; also called humanized 24C05) VH: QVQLVESGGGLVKPGGSLRLSCAASGFTFSDYAMSWIRQAPGKGLEWVSTISDGGTYTYYPDNVKGRFTISRDNAKNSLYLQMNSLRAEDTAVYYCAREWGDYDGFDYWGQGTLVTVSS VL: DIQMTQSPSSLSASVGDRVTITCRASQEISGYLSWFQQKPGKAPKSLIYAASTLDSGVPSRFSGSGSGTDFTLTISSLQPEDFATYYCLQYDSYPYTFGGGTKVEIK	0.00096 s⁻¹
15E02 IgG1null (antibody, V domains shown, Human IgG1null and human Ckappa) VH: QVQLVESGGGLVKPGGSLRLSCAASGFTFSDYGMSWIRQAPGKGLEWVSTISDSGTTIYYADNVKGRFTISRDNAKNSLYLQMNSLRAEDTAVYYCAREYGDYDGFDYWGQGTLVTVSS VL: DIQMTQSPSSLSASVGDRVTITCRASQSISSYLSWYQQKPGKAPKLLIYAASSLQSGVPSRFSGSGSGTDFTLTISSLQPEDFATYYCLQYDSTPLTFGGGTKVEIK	0.0039 s⁻¹

Read the next record carefully.
Dear colleague, I am looking for the recorded koff of the following binder: MH5 IgG1null (antibody, V domains shown, Designer (Maximally Humanized) clone; Human IgG1null and human Ckappa) VH: QVQLVESGGGLVKPGGSLRLSCAASGFTFSDYGMSWIRQAPGKGLEWVSTISDSGSTIYYADSVKGRFTISRDNAKNSLYLQMNSLRAEDTAVYYCAREYGDYDGFDYWGQGTLVTVSS VL: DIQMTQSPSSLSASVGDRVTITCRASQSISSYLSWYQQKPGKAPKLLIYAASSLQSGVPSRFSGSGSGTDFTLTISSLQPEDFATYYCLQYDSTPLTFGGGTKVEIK 0.0041 s⁻¹
